- Protocol: Antioxidant activity assessed as hydroxyl radical scavenging activity at 100 ug/ml after 60 mins
- Assay type: physicochemical
- Particulars: 1 h
Experimental endpoint: inhibition (INH) (%)
Express the result in % but write the number alone.

Report inhibition (INH), nothing else, for this compound: `C/C(=N\Nc1ccc(C)cc1)c1cc2c(C)cc(=O)oc2c(/C(C)=N/Nc2ccc(C)cc2)c1O`
30.52

Could you please provide reported inhibition (INH) for COc1ccc(O)c(C(C)(C)C)c1.COc1ccc(O)cc1C(C)(C)C [BUTYLATED HYDROXYANISOLE] ? Thanks!
32.03

Report inhibition (INH), nothing else, for this compound: `Cc1cc(=O)oc2c(-c3nn(-c4ccc(F)cc4)cc3C=O)c(O)c(-c3nn(-c4ccc(F)cc4)cc3C=O)cc12`
29.47

----------
- Tested on: Candida albicans
- Protocol: Antifungal activity against Candida albicans assessed as growth inhibition incubated for 72 hrs at 37 degC by broth dilution method
- Type: functional
Experimental endpoint: MIC90 (µg/mL)
All answers are understood in µg/mL, so give the number only.

Enter MIC90 (test system Candida albicans) for `Cc1cc(=O)oc2c(-c3nn(-c4ccccc4)cc3C=O)c(O)c(-c3nn(-c4ccccc4)cc3C=O)cc12`
50

Given `C/C(=N\Nc1ccccc1)c1cc2c(C)cc(=O)oc2c(/C(C)=N/Nc2ccccc2)c1O` , report its MIC90 on Candida albicans.
50

Would you please give the reported MIC90 of `C/C(=N\Nc1cccc(C)c1)c1cc2c(C)cc(=O)oc2c(/C(C)=N/Nc2cccc(C)c2)c1O` with Candida albicans?
50

Origin of measurements: ChEMBL document CHEMBL3745592
